Overview of reported IC50 across a group of compounds:
assaySystem: CDK4/cyclin D3 (Homo sapiens (Human), UniProt P11802)
Sequence (P11802 whole entry, species assumed): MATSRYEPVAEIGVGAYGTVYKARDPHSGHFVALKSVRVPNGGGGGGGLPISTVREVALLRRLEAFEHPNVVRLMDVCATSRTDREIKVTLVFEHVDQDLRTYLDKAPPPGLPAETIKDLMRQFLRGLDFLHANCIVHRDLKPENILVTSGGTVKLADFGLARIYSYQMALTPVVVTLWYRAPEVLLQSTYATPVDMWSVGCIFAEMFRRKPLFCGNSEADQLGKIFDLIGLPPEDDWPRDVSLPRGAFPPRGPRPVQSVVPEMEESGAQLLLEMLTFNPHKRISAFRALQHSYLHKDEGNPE
Sequence (P30281 whole entry partner, species assumed): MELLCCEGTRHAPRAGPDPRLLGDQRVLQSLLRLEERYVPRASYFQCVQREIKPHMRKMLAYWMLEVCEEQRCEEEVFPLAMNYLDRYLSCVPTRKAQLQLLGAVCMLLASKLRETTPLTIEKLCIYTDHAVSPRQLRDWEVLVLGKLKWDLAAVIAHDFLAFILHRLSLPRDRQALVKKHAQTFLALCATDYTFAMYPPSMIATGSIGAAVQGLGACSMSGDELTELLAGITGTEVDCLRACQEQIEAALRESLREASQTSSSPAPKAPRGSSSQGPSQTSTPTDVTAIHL
measurementNotes: Kinase activity assay, Caliper Mobility Shift Assay, CDK4/cyclin D3
measurementSetup: class symbols
Structures can show the parent of a compound that is named as a salt.

- compound: "c1cc(Nc2ncc3ccc4nnn(C5CCCC5)c4c3n2)ncc1N1CCNCC1 [Compound I-22, hydrochloride]"
  assaySystem: "CDK4/cyclin D3 (Homo sapiens (Human), UniProt P11802)"
  IC50: "< 10 nM"
- compound: "CC(C)n1nnc2ccc3cnc(Nc4ccc(N5CCOCC5)c(F)c4)nc3c21 [Compound I-35, hydrochloride]"
  assaySystem: "CDK4/cyclin D3 (Homo sapiens (Human), UniProt P11802)"
  IC50: "10 to 50 nM"
- compound: "CN1CCN(c2ccc(Nc3ncc4ccc5nnn(C6CCCC6)c5c4n3)nc2)CC1"
  assaySystem: "CDK4/cyclin D3 (Homo sapiens (Human), UniProt P11802)"
  IC50: "< 10 nM"
- compound: "CC(C)n1nnc2ccc3cnc(Nc4cccc(S(N)(=O)=O)c4)nc3c21 [Compound I-36, hydrochloride]"
  assaySystem: "CDK4/cyclin D3 (Homo sapiens (Human), UniProt P11802)"
  IC50: "< 10 nM"
- compound: "Cc1cc(Nc2ncc3ccc4nnn(C(C)C)c4c3n2)ncc1N1CCNCC1 [Compound I-2, hydrochloride]"
  assaySystem: "CDK4/cyclin D3 (Homo sapiens (Human), UniProt P11802)"
  IC50: "10 to 50 nM"
- compound: "CC(C)n1nnc2ccc3cnc(Nc4ccc(N5CCNCC5)cc4F)nc3c21 [Compound I-28, hydrochloride]"
  assaySystem: "CDK4/cyclin D3 (Homo sapiens (Human), UniProt P11802)"
  IC50: "< 10 nM"
- compound: "Cc1nc(Nc2ncc3ccc4nnn(C(C)C)c4c3n2)ccc1N1CCNCC1 [Compound I-3, hydrochloride]"
  assaySystem: "CDK4/cyclin D3 (Homo sapiens (Human), UniProt P11802)"
  IC50: "< 10 nM"

====

assaySystem: CDK2/cyclin A2 (Homo sapiens (Human), UniProt P24941)
measurementNotes: Kinase activity assay, Caliper Mobility Shift Assay, CDK2/cyclin A2
measurementSetup: class symbols
Counter-ions that a name gives are not always drawn.

- compound: "CC(C)n1nnc2ccc3cnc(Nc4ccc(C(=O)N5CCN(C)CC5)cc4)nc3c21 [Compound I-40]"
  IC50: "< 10 nM"
- compound: "CC(C)n1nnc2ccc3cnc(Nc4ccc(N5CCC(CCCO)CC5)cc4)nc3c21 [Compound I-27]"
  IC50: "50 to 100 nM"
- compound: "CC(C)n1nnc2ccc3cnc(Nc4ccc(N5CCOCC5)c(F)c4)nc3c21 [Compound I-35, hydrochloride]"
  IC50: "10 to 50 nM"
- compound: "CC(C)n1nnc2ccc3cnc(Nc4ccc(N5CCOCC5)cc4)nc3c21 [Compound I-26]"
  IC50: "< 10 nM"
- compound: "CC(C)n1nnc2ccc3cnc(Nc4cccc(S(N)(=O)=O)c4)nc3c21 [Compound I-36, hydrochloride]"
  IC50: "< 10 nM"
- compound: "CC(C)n1nnc2ccc3cnc(Nc4ccc(OCCN(C)C)cc4)nc3c21 [Compound I-38]"
  IC50: "< 10 nM"
- compound: "CC(C)n1nnc2ccc3cnc(Nc4ccc(N5CCNCC5)c(F)c4)nc3c21 [Compound I-32, hydrochloride]"
  IC50: "< 10 nM"
- compound: "CC(C)n1nnc2ccc3cnc(Nc4ccc(N5CCNCC5)cc4F)nc3c21 [Compound I-28, hydrochloride]"
  IC50: "< 10 nM"

====

assaySystem: CDK4/cyclin D3 (Homo sapiens (Human))
measurementNotes: Kinase activity assay, Caliper Mobility Shift Assay, CDK4/cyclin D3
Type: biochemical
measurementSetup: class symbols
pIC50: −log10 of the molar value. Structures can show the parent of a compound that is named as a salt.

- compound: "CC(C)n1nnc2ccc3cnc(Nc4ccc(N5CCNCC5=O)cn4)nc3c21 [Compound I-14, hydrochloride]"
  pIC50: "> 8.00"
- compound: "CC(C)n1nnc2ccc3cnc(Nc4ccc(N5CCOCC5)cc4F)nc3c21"
  pIC50: "7.00 to 7.30"
- compound: "CC(C)n1nnc2ccc3cnc(Nc4ccc(C(=O)N5CCN(C)CC5)cc4)nc3c21"
  pIC50: "> 8.00"
- compound: "CC(C)n1nnc2ccc3cnc(Nc4ccc(N5CCN(C)CC5)cn4)nc3c21 [Compound I-4, hydrochloride]"
  pIC50: "> 8.00"
- compound: "CC(C)n1nnc2ccc3cnc(Nc4ccc(C5CCNCC5)cn4)nc3c21 [Compound I-12, hydrochloride]"
  pIC50: "> 8.00"
- compound: "COc1cc(N2CCNCC2)ccc1Nc1ncc2ccc3nnn(C(C)C)c3c2n1 [Compound I-30, hydrochloride]"
  pIC50: "> 8.00"
- compound: "CC(C)Cn1nnc2ccc3cnc(Nc4ccc(N5CCOCC5)cn4)nc3c21"
  pIC50: "7.30 to 8.00"
- compound: "CC(C)Cn1nnc2ccc3cnc(Nc4ccc(N5CCN(C)CC5)cn4)nc3c21 [Compound I-19, hydrochloride]"
  pIC50: "> 8.00"
- compound: "CC(C)n1nnc2ccc3cnc(Nc4ccc(N5CCNCC5)c(F)c4)nc3c21 [Compound I-32, hydrochloride]"
  pIC50: "> 8.00"
- compound: "CC(C)n1nnc2ccc3cnc(Nc4ccc(N5CCS(=O)(=O)CC5)cn4)nc3c21 [Compound I-15, hydrochloride]"
  pIC50: "> 8.00"
- compound: "CC(C)CN1CCN(c2ccc(Nc3ncc4ccc5nnn(C(C)C)c5c4n3)nc2)CC1 [Compound I-9, hydrochloride]"
  pIC50: "> 8.00"
- compound: "CC(C)N1CCN(c2ccc(Nc3ncc4ccc5nnn(C(C)C)c5c4n3)nc2)CC1 [Compound I-7, hydrochloride]"
  pIC50: "> 8.00"
- compound: "CCN1CCN(c2ccc(Nc3ncc4ccc5nnn(C(C)C)c5c4n3)cc2F)CC1 [Compound I-34, hydrochloride]"
  pIC50: "> 8.00"
- compound: "CCN1CCN(c2ccc(Nc3ncc4ccc5nnn(C(C)C)c5c4n3)cc2)CC1"
  pIC50: "> 8.00"
- compound: "CC(C)n1nnc2ccc3cnc(Nc4ccc(N5CCC(CCCO)CC5)cc4)nc3c21"
  pIC50: "7.00 to 7.30"
- compound: "CC(C)n1nnc2ccc3cnc(Nc4ccc(N5CCNCC5)nn4)nc3c21 [Compound I-13, hydrochloride]"
  pIC50: "> 8.00"
- compound: "CCN1CCN(c2ccc(Nc3ncc4ccc5nnn(CC(C)C)c5c4n3)nc2)CC1"
  pIC50: "> 8.00"

====

assaySystem: CDK6/cyclin D3 (Homo sapiens (Human), UniProt Q00534)
Sequence (Q00534 whole entry, species assumed): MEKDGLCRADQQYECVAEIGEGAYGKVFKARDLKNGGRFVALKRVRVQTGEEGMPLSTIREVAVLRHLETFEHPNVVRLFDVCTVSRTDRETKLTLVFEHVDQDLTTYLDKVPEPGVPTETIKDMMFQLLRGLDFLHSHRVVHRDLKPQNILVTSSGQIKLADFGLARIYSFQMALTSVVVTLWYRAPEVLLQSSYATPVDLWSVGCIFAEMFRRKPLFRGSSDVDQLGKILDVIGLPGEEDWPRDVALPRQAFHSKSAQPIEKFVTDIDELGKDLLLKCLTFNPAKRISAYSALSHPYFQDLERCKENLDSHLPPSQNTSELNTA
Sequence (P30281 whole entry partner, species assumed): as the sequence (P30281 whole entry partner, species assumed) above
measurementNotes: Kinase activity assay, Caliper Mobility Shift Assay, CDK6/cyclin D3
measurementSetup: class symbols
pIC50: −log10 of the molar value. Where a name gives a salt, the structure may show the parent alone.
Overview of reported pIC50 across a group of compounds:
readoutName: pIC50

- compound: "CC(C)n1nnc2ccc3cnc(Nc4ccc(N5CCS(=O)(=O)CC5)cn4)nc3c21 [Compound I-15, hydrochloride]"
  readoutName: "pIC50"
  result: "7.30 to 8.00"
- compound: "CC(C)n1nnc2ccc3cnc(Nc4ccc(N5CC6(CCNCC6)C5)cn4)nc3c21 [Compound I-17, hydrochloride]"
  readoutName: "pIC50"
  result: "7.30 to 8.00"
- compound: "CN1CCN(c2ccc(Nc3ncc4ccc5nnn(C6CCCC6)c5c4n3)nc2)CC1 [Compound I-23]"
  readoutName: "pIC50"
  result: "7.30 to 8.00"
- compound: "CC(C)n1nnc2ccc3cnc(Nc4ccc(N5CCOCC5)cc4F)nc3c21 [Compound I-29]"
  readoutName: "pIC50"
  result: "7.00 to 7.30"
- compound: "Cc1nc(Nc2ncc3ccc4nnn(C(C)C)c4c3n2)ccc1N1CCNCC1 [Compound I-3, hydrochloride]"
  readoutName: "pIC50"
  result: "> 8.00"
- compound: "Cc1cc(Nc2ncc3ccc4nnn(C(C)C)c4c3n2)ncc1N1CCNCC1 [Compound I-2, hydrochloride]"
  readoutName: "pIC50"
  result: "7.00 to 7.30"
- compound: "CCN1CCN(c2ccc(Nc3ncc4ccc5nnn(C(C)C)c5c4n3)cc2)CC1 [Compound I-25]"
  readoutName: "pIC50"
  result: "> 8.00"
- compound: "CC(C)Cn1nnc2ccc3cnc(Nc4ccc(N5CCN(C)CC5)cn4)nc3c21 [Compound I-19, hydrochloride]"
  readoutName: "pIC50"
  result: "7.30 to 8.00"
- compound: "CC(C)n1nnc2ccc3cnc(Nc4ccc(N5CCC(CCCO)CC5)cc4)nc3c21 [Compound I-27]"
  readoutName: "pIC50"
  result: "7.00 to 7.30"
- compound: "CC(C)n1nnc2ccc3cnc(Nc4ccc(OCCN(C)C)cc4)nc3c21 [Compound I-38]"
  readoutName: "pIC50"
  result: "> 8.00"

====

assaySystem: CDK6/cyclin D3 (Homo sapiens (Human))
measurementNotes: Kinase activity assay, Caliper Mobility Shift Assay, CDK6/cyclin D3
measurementSetup: class symbols
pIC50: −log10 of the molar value. Counter-ions that a name gives are not always drawn.

- molecule: "CC(C)CN1CCN(c2ccc(Nc3ncc4ccc5nnn(C(C)C)c5c4n3)nc2)CC1 [Compound I-9, hydrochloride]"
  pIC50: "> 8.00"
- molecule: "CC(C)n1nnc2ccc3cnc(Nc4ccc(N5CCNCC5)cc4)nc3c21 [Compound I-24, hydrochloride]"
  pIC50: "> 8.00"
- molecule: "CC(C)n1nnc2ccc3cnc(Nc4ccc(N5CCNCC5)nn4)nc3c21 [Compound I-13, hydrochloride]"
  pIC50: "7.30 to 8.00"
- molecule: "COc1ccc2cc(Nc3ncc4ccc5nnn(C(C)C)c5c4n3)ccc2n1 [Compound I-16, hydrochloride]"
  pIC50: "> 8.00"
- molecule: "CC(C)n1nnc2ccc3cnc(Nc4ccc(C(=O)N5CCN(C)CC5)cc4)nc3c21"
  pIC50: "> 8.00"
- molecule: "CC(C)Cn1nnc2ccc3cnc(Nc4ccc(N5CCNCC5)cn4)nc3c21"
  pIC50: "7.30 to 8.00"
- molecule: "CC(C)n1nnc2ccc3cnc(Nc4ccc(N5CCNCC5)cc4F)nc3c21 [Compound I-28, hydrochloride]"
  pIC50: "> 8.00"
- molecule: "CC(C)n1nnc2ccc3cnc(Nc4ccc(N5CCN(C)CC5)c(F)c4)nc3c21"
  pIC50: "> 8.00"
- molecule: "CC(C)n1nnc2ccc3cnc(Nc4ccc(N5CCNCC5)c(F)c4)nc3c21 [Compound I-32, hydrochloride]"
  pIC50: "> 8.00"
- molecule: "CC(C)n1nnc2ccc3cnc(Nc4ccc(N5CCC(N(C)C)CC5)cn4)nc3c21 [Compound I-11, hydrochloride]"
  pIC50: "> 8.00"
- molecule: "CC(C)n1nnc2ccc3cnc(Nc4ccc(N5CCNCC5=O)cn4)nc3c21 [Compound I-14, hydrochloride]"
  pIC50: "7.30 to 8.00"
- molecule: "CC(C)n1nnc2ccc3cnc(Nc4ccc(C(=O)N5CCNCC5)cc4)nc3c21 [Compound I-39, hydrochloride]"
  pIC50: "> 8.00"
- molecule: "CCN1CCN(c2ccc(Nc3ncc4ccc5nnn(C(C)C)c5c4n3)nc2)CC1 [Compound I-5, hydrochloride]"
  pIC50: "> 8.00"
- molecule: "c1cc(Nc2ncc3ccc4nnn(C5CCCC5)c4c3n2)ncc1N1CCNCC1 [Compound I-22, hydrochloride]"
  pIC50: "> 8.00"
- molecule: "CC(C)n1nnc2ccc3cnc(Nc4ccc(N5CCN(C6CC6)CC5)cn4)nc3c21 [Compound I-8, hydrochloride]"
  pIC50: "7.30 to 8.00"
- molecule: "CC(C)n1nnc2ccc3cnc(Nc4cccc(S(N)(=O)=O)c4)nc3c21 [Compound I-36, hydrochloride]"
  pIC50: "> 8.00"
- molecule: "CC(C)n1nnc2ccc3cnc(Nc4ccc(N5CCOCC5)cc4)nc3c21"
  pIC50: "> 8.00"
- molecule: "CC(C)n1nnc2ccc3cnc(Nc4ccc(N5CCN(C)CC5)cn4)nc3c21 [Compound I-4, hydrochloride]"
  pIC50: "> 8.00"
- molecule: "COc1cc(N2CCNCC2)ccc1Nc1ncc2ccc3nnn(C(C)C)c3c2n1 [Compound I-30, hydrochloride]"
  pIC50: "> 8.00"
- molecule: "COc1cc(N2CCN(C)CC2)ccc1Nc1ncc2ccc3nnn(C(C)C)c3c2n1"
  pIC50: "7.00 to 7.30"
- molecule: "CC(C)n1nnc2ccc3cnc(Nc4ccc(C5CCNCC5)cn4)nc3c21 [Compound I-12, hydrochloride]"
  pIC50: "> 8.00"
- molecule: "CC(C)n1nnc2ccc3cnc(Nc4ccc(N5CCOCC5)cn4)nc3c21 [Compound I-6, hydrochloride]"
  pIC50: "7.30 to 8.00"
- molecule: "CC(C)Cn1nnc2ccc3cnc(Nc4ccc(N5CCOCC5)cn4)nc3c21"
  pIC50: "7.00 to 7.30"
- molecule: "CC(C)n1nnc2ccc3cnc(Nc4ccc(N5CCNCC5)cn4)nc3c21 [Compound I-1, hydrochloride]"
  pIC50: "> 8.00"
- molecule: "CC(C)n1nnc2ccc3cnc(Nc4ccc(N(CCN5CCOCC5)S(C)(=O)=O)cc4)nc3c21"
  pIC50: "> 8.00"
- molecule: "CC(C)N1CCN(c2ccc(Nc3ncc4ccc5nnn(C(C)C)c5c4n3)nc2)CC1 [Compound I-7, hydrochloride]"
  pIC50: "> 8.00"
- molecule: "CCN1CCN(c2ccc(Nc3ncc4ccc5nnn(C(C)C)c5c4n3)cc2F)CC1 [Compound I-34, hydrochloride]"
  pIC50: "> 8.00"
- molecule: "CCN1CCN(c2ccc(Nc3ncc4ccc5nnn(CC(C)C)c5c4n3)nc2)CC1"
  pIC50: "7.30 to 8.00"
- molecule: "CC(C)n1nnc2ccc3cnc(Nc4ccc(N5CCOCC5)c(F)c4)nc3c21 [Compound I-35, hydrochloride]"
  pIC50: "7.30 to 8.00"
- molecule: "CCN1CCN(Cc2ccc(Nc3ncc4ccc5nnn(C(C)C)c5c4n3)nc2)CC1 [Compound I-10, hydrochloride]"
  pIC50: "7.30 to 8.00"
